- System: OVCAR-8
- Method Summary: NCI tumour cell line growth inhibition, 48 h
The source made the active and inactive calls. Rule as the data show it: active = GI50 up to about 1.1 µM and inactive = higher.
Here, each record is paired with measured GI50 data.

Solved cases below.
Compound | Assay Value
Cc1cc(-c2ccccc2)cc2[n+]1CC=C2.[O-][Cl+3]([O-])([O-])[O-] | > 100 µM (inactive)
COC(=O)C1CCC(=O)N1CN(C(C)=O)c1cc(OC)ccc1OC (configuration not stated) | > 100 µM (inactive)
O=C1Cc2c(-c3ccc(Cl)cc3)cc(-c3ccccc3)nc2-c2ccccc2N1 | 2.76 µM (inactive)
O=C(O)c1nc2nc(Cl)c(Cl)nc2[nH]1 | > 100 µM (inactive)
COC(=O)C(Cc1ccccc1)NP(=O)(O)OCC1OC(n2cc(Br)c(=O)[nH]c2=O)CC1O (configuration not stated) | > 100 µM (inactive)
Clc1nc(-c2ccccc2)nc(Cl)c1Cl | 14.6 µM (inactive)
COC1C=COC2(C)Oc3c(C)c(O)c4c(c3C2=O)/C(=N/C2CCC(O)OC2C)C=C(NC(=O)/C(C)=C\C(=O)C2CC2C(O)C(C)C(O)C(C)C(OC(C)=O)C1C)C4=O (configuration not stated) | 1.69 µM (inactive)
COc1cc2c(c(OC)c1OC)C(=O)[C@H](O)[C@H]2NC(N)=O | > 100 µM (inactive)
C[C@@H](c1ccccc1)n1c(N)c(C#N)c2ccc([N+](=O)[O-])cc2c1=O | 12 µM (inactive)
O=C(Nc1ccc(N2C(=O)CSC2c2cccs2)cc1)c1ccc(N2C(=O)CSC2c2cccs2)cc1 (configuration not stated) | > 100 µM (inactive)

Prompt line: Endpoint output: GI50 of CCOC(=O)NC(Nc1ccc(S(=O)(=O)Nc2ncccn2)cc1)(C(=O)OCC)C(F)(F)F (configuration not stated) . Value?
Response line: > 100 µM (inactive)

Prompt line: Endpoint output: GI50 of NCCC(N)C(=O)O (configuration not stated) . Value?
Response line: > 100 µM (inactive)

Prompt line: Endpoint output: GI50 of N#CC(NNC(=O)Cc1ccccc1)c1ccccc1O (configuration not stated) . Value?
Response line: 12.3 µM (inactive)
